- System: U2OS
- test-method-notes: cell viability relative to DMSO; higher = less toxic
- condition: 72 h; 10 nM
reported-metric: cell viability (%)
Answer with a number only, understood to be in %.

Example molecules with recorded cell viability:
[[record]]
molecule = "O=C(O)c1cccc(-c2noc(-c3ccccc3F)n2)c1"
subject_of_test = "U2OS"
reported_metric = "cell viability"
number = 99.4

[[record]]
molecule = "COC(=O)[C@@H]1C[C@H](OC(C)=O)C(=O)[C@H]2[C@@]1(C)CC[C@H]1C(=O)O[C@H](c3ccoc3)C[C@]21C"
subject_of_test = "U2OS"
reported_metric = "cell viability"
number = 101

[[record]]
molecule = "CC(C)=CCC[C@](C)(O)[C@H]1CC[C@]2(C)[C@@H]1[C@H](O)C[C@@H]1[C@@]3(C)CC[C@H](O)C(C)(C)[C@@H]3[C@@H](O)C[C@]12C"
subject_of_test = "U2OS"
reported_metric = "cell viability"
number = 101

[[record]]
molecule = "Oc1nc(O)c2nc(O)[nH]c2n1"
subject_of_test = "U2OS"
reported_metric = "cell viability"
number = 107

[[record]]
molecule = "CCCCNc1cc(C(=O)O)cc(S(N)(=O)=O)c1Oc1ccccc1 [bumetanide]"
subject_of_test = "U2OS"
reported_metric = "cell viability"
number = 101

[[record]]
molecule = "COc1cc(N)c(Cl)cc1C(=O)NC1CCN(Cc2ccccc2)CC1 [clebopride]"
subject_of_test = "U2OS"
reported_metric = "cell viability"
number = 97.2


Memo: O=C(NCCCN1CCOCC1)c1cnn2c(-c3ccccc3)cc(-c3ccccc3)nc12 , reported cell viability: 103

Memo: O=C(Oc1cc(S(=O)(=O)c2ccccc2)ccc1[N+](=O)[O-])c1ccc(Cl)cc1 , reported cell viability: 94.9

Memo: CCn1c(-c2nonc2N)nc2cnc(Oc3cccc(NC(=O)c4ccc(OCCN5CCOCC5)cc4)c3)cc21 , reported cell viability: 98.6

Memo: O=c1oc2c(O)c(O)cc3c(=O)oc4c(O)c(O)cc1c4c23 , reported cell viability: 99.6

Memo: C[C@]12CC/C(=N\OCCN)C[C@@H]1C(=O)C[C@@H]1[C@@H]2CC[C@]2(C)C(=O)CC[C@@H]12 , reported cell viability: 96.9

###

Listed below: cell viability values for each entry.
- Tested on: U2OS
- test-method-notes: cell viability relative to DMSO; higher = less toxic
- condition: 72 h; 1 nM
Answer with a number only, understood to be in %.

[[record]]
compound = "C[C@@H]1CC[C@H]2C(C)(C)[C@H]3C[C@@]12CC[C@@]3(C)O"
subject_of_test = "U2OS"
number = 99.9

[[record]]
compound = "COc1cc2ncnc(Nc3ccc(O)c(Br)c3)c2cc1OC"
subject_of_test = "U2OS"
number = 103

[[record]]
compound = "COC(=O)N[C@H](C(=O)N1CC2(CC2)C[C@H]1c1nc(-c2ccc3c(c2)C(F)(F)c2cc(-c4ccc5[nH]c([C@@H]6[C@H]7CC[C@H](C7)N6C(=O)[C@@H](NC(=O)OC)C(C)C)nc5c4)ccc2-3)c[nH]1)C(C)C"
subject_of_test = "U2OS"
number = 100

[[record]]
compound = "CC1(C)CCC(C)(C)c2cc(NC(=O)c3ccc(C(=O)O)cc3)ccc21"
subject_of_test = "U2OS"
number = 99

[[record]]
compound = "N=C(N)NCCC[C@@H](NC(=O)[C@@H]1CCCN1C(=O)[C@@H]1CSSCCC(=O)N[C@@H](Cc2ccc(O)cc2)C(=O)N[C@@H](Cc2ccccc2)C(=O)N[C@@H](CCC(N)=O)C(=O)N[C@@H](CC(N)=O)C(=O)N1)C(=O)NCC(N)=O [desmopressin-acetate]"
subject_of_test = "U2OS"
number = 97.5


Now consider a different compound.
Memo: CCCN(CC1CC1)c1nc(C)nc(Nc2c(Cl)cc(Cl)cc2Cl)c1Cl , reported cell viability: 100
